Source listed as paper PMC12486440.

Tested on: SNB-75
EXPERIMENTAL_CONDITIONS: single dose 10 μM; CNS cancer
QUANTITY_MEASURED: GI% (%)
Field: numeric (%). Do not append units.

Form field - read-out: GI%; system: SNB-75; submitted item: CC(=O)N1N=C(c2ccccc2)CC1c1cn(-c2ccccc2)nc1-c1cc2ccccc2o1 (stereo not drawn) [4a] 1.45

Another compound: c1ccc(C2=NNC(c3cn(-c4ccccc4)nc3-c3cc4ccccc4o3)C2)cc1 (stereo not drawn) [3a] −10.52

Another compound: COc1ccc(C2=NNC(c3cn(-c4ccccc4)nc3-c3cc4ccccc4o3)C2)cc1 (stereo not drawn) [3b] 0.28

Another compound: c1ccc(-n2cc(C3CC(c4nc5ccccc5[nH]4)=NN3)c(-c3cc4ccccc4o3)n2)cc1 (stereo not drawn) [3d] 65.51

Another compound: COc1ccc(C2=NNC(c3cn(-c4ccccc4)nc3-c3cc4ccccc4o3)C2)cc1OC (stereo not drawn) [3c] 58.00

Another compound: COc1ccc(C2=NN(C(C)=O)C(c3cn(-c4ccccc4)nc3-c3cc4ccccc4o3)C2)cc1OC (stereo not drawn) [4c] 14.70

* * *

// reported GI% per item
Tested on: CAKI-1
EXPERIMENTAL_CONDITIONS: single dose 10 μM; renal carcinoma
Field: numeric (%). Do not append units.

[
  {
    "COMPOUND": "COc1ccc(C2=NNC(c3cn(-c4ccccc4)nc3-c3cc4ccccc4o3)C2)cc1OC (stereo not shown)",
    "GI% / %": 76.85
  }
]

Recorded GI% of COc1ccc(C2=NN(C(C)=O)C(c3cn(-c4ccccc4)nc3-c3cc4ccccc4o3)C2)cc1OC (stereo not shown) , please. 13.64

Another compound: CC(=O)N1N=C(c2ccccc2)CC1c1cn(-c2ccccc2)nc1-c1cc2ccccc2o1 (stereo not shown) 13.36

Another compound: COc1ccc(C2=NN(C(C)=O)C(c3cn(-c4ccccc4)nc3-c3cc4ccccc4o3)C2)cc1 (stereo not shown) 13.20

* * *

// reported GI% per item
Tested on: A549/ATCC
EXPERIMENTAL_CONDITIONS: single dose 10 μM; non-small lung carcinoma
Field: numeric (%). Do not append units.

See these solved cases before continuing.
[
  {
    "MOLECULE": "COc1ccc(C2=NN(C(C)=O)C(c3cn(-c4ccccc4)nc3-c3cc4ccccc4o3)C2)cc1OC (stereo not shown)",
    "READOUT_VALUE": 2.60
  },
  {
    "MOLECULE": "c1ccc(-n2cc(C3CC(c4nc5ccccc5[nH]4)=NN3)c(-c3cc4ccccc4o3)n2)cc1 (stereo not shown)",
    "READOUT_VALUE": 87.82
  },
  {
    "MOLECULE": "c1ccc(C2=NNC(c3cn(-c4ccccc4)nc3-c3cc4ccccc4o3)C2)cc1 (stereo not shown)",
    "READOUT_VALUE": 3.63
  }
]

Recorded GI% of COc1ccc(C2=NNC(c3cn(-c4ccccc4)nc3-c3cc4ccccc4o3)C2)cc1OC (stereo not shown) , please. 57.50

* * *

Test system: SF-539
EXPERIMENTAL_CONDITIONS: single dose 10 μM; CNS cancer
// reported GI% per item
Field: numeric (%). Do not append units.

See these solved cases before continuing.
[
  {
    "COMPOUND": "CC(=O)N1N=C(c2nc3ccccc3[nH]2)CC1c1cn(-c2ccccc2)nc1-c1cc2ccccc2o1 (stereo not shown) [4d]",
    "READOUT_VALUE": 0.68
  },
  {
    "COMPOUND": "COc1ccc(C2=NN(C(C)=O)C(c3cn(-c4ccccc4)nc3-c3cc4ccccc4o3)C2)cc1 (stereo not shown) [4b]",
    "READOUT_VALUE": 2.46
  }
]

Recorded GI% of CC(=O)N1N=C(c2ccccc2)CC1c1cn(-c2ccccc2)nc1-c1cc2ccccc2o1 (stereo not shown) [4a] , please. 8.41

Another compound: c1ccc(-n2cc(C3CC(c4nc5ccccc5[nH]4)=NN3)c(-c3cc4ccccc4o3)n2)cc1 (stereo not shown) [3d] 85.47

* * *

Test system: SF-268
EXPERIMENTAL_CONDITIONS: single dose 10 μM; CNS cancer
// reported GI% per item
Field: numeric (%). Do not append units.

See these solved cases before continuing.
[
  {
    "MOLECULE": "CC(=O)N1N=C(c2nc3ccccc3[nH]2)CC1c1cn(-c2ccccc2)nc1-c1cc2ccccc2o1 (stereo not shown)",
    "READOUT_VALUE": 1.38
  },
  {
    "MOLECULE": "COc1ccc(C2=NNC(c3cn(-c4ccccc4)nc3-c3cc4ccccc4o3)C2)cc1OC (stereo not shown)",
    "READOUT_VALUE": 61.15
  },
  {
    "MOLECULE": "COc1ccc(C2=NN(C(C)=O)C(c3cn(-c4ccccc4)nc3-c3cc4ccccc4o3)C2)cc1OC (stereo not shown)",
    "READOUT_VALUE": 4.67
  }
]

Switching to the query record.
Recorded GI% of c1ccc(-n2cc(C3CC(c4nc5ccccc5[nH]4)=NN3)c(-c3cc4ccccc4o3)n2)cc1 (stereo not shown) , please. 72.21

* * *

// reported GI% per item
Tested on: SF-539
EXPERIMENTAL_CONDITIONS: single dose 10 μM; CNS cancer
Field: numeric (%). Do not append units.

See these solved cases before continuing.
[
  {
    "MOLECULE": "COc1ccc(C2=NN(C(C)=O)C(c3cn(-c4ccccc4)nc3-c3cc4ccccc4o3)C2)cc1OC (stereo not shown) [4c]",
    "QUANTITY_MEASURED": "GI%",
    "READOUT_VALUE": 1.95
  },
  {
    "MOLECULE": "c1ccc(C2=NNC(c3cn(-c4ccccc4)nc3-c3cc4ccccc4o3)C2)cc1 (stereo not shown) [3a]",
    "QUANTITY_MEASURED": "GI%",
    "READOUT_VALUE": 6.00
  },
  {
    "MOLECULE": "COc1ccc(C2=NNC(c3cn(-c4ccccc4)nc3-c3cc4ccccc4o3)C2)cc1OC (stereo not shown) [3c]",
    "QUANTITY_MEASURED": "GI%",
    "READOUT_VALUE": 56.77
  }
]

Recorded GI% of COc1ccc(C2=NNC(c3cn(-c4ccccc4)nc3-c3cc4ccccc4o3)C2)cc1 (stereo not shown) [3b] , please. 4.09

* * *

System: CCRF-CEM
EXPERIMENTAL_CONDITIONS: single dose 10 μM; leukemia
// reported GI% per item
Field: numeric (%). Do not append units.

See these solved cases before continuing.
[
  {
    "MOLECULE": "c1ccc(C2=NNC(c3cn(-c4ccccc4)nc3-c3cc4ccccc4o3)C2)cc1 (stereo not drawn)",
    "READOUT_VALUE": 12.98
  },
  {
    "MOLECULE": "COc1ccc(C2=NN(C(C)=O)C(c3cn(-c4ccccc4)nc3-c3cc4ccccc4o3)C2)cc1OC (stereo not drawn)",
    "READOUT_VALUE": 9.93
  }
]

Recorded GI% of COc1ccc(C2=NN(C(C)=O)C(c3cn(-c4ccccc4)nc3-c3cc4ccccc4o3)C2)cc1 (stereo not drawn) , please. 10.80

* * *

Test system: CCRF-CEM
EXPERIMENTAL_CONDITIONS: single dose 10 μM; leukemia
QUANTITY_MEASURED: GI% (%)
Field: numeric (%). Do not append units.

See these solved cases before continuing.
[
  {
    "MOLECULE": "COc1ccc(C2=NNC(c3cn(-c4ccccc4)nc3-c3cc4ccccc4o3)C2)cc1OC (stereo not shown) [3c]",
    "SYSTEM_NAME": "CCRF-CEM",
    "GI% / %": 84.09
  },
  {
    "MOLECULE": "COc1ccc(C2=NNC(c3cn(-c4ccccc4)nc3-c3cc4ccccc4o3)C2)cc1 (stereo not shown) [3b]",
    "SYSTEM_NAME": "CCRF-CEM",
    "GI% / %": 17.25
  },
  {
    "MOLECULE": "CC(=O)N1N=C(c2nc3ccccc3[nH]2)CC1c1cn(-c2ccccc2)nc1-c1cc2ccccc2o1 (stereo not shown) [4d]",
    "SYSTEM_NAME": "CCRF-CEM",
    "GI% / %": 10.91
  }
]

Recorded GI% of CC(=O)N1N=C(c2ccccc2)CC1c1cn(-c2ccccc2)nc1-c1cc2ccccc2o1 (stereo not shown) [4a] , please. 15.54

* * *

SYSTEM_NAME: Pim-1 (Homo sapiens)
Sequence (P11309 whole entry): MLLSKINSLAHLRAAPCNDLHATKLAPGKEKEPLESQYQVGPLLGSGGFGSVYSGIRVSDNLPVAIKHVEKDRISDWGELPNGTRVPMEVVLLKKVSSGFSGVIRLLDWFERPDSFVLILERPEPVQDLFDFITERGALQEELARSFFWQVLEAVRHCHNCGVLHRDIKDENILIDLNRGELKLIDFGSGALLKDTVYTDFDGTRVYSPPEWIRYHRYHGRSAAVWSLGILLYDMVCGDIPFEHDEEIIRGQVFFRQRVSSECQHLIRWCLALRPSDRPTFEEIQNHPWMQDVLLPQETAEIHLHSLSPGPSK
ASSAY_INFO: PIM kinase inhibitory assay (ADP-Glo)
Assay type: biochemical
QUANTITY_MEASURED: IC50 (nM)
Field: numeric (nM). Do not append units.

Recorded IC50 of c1ccc(-n2cc(C3CC(c4nc5ccccc5[nH]4)=NN3)c(-c3cc4ccccc4o3)n2)cc1 (stereo not shown) , please. 2370
